For each entry below, report its normalized growth value.
# assay: chemical genetic growth profiling, strain panel (AID 1159580);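 further: tested at 20 µM; growth read once vehicle control cultures reached saturation at 30 °C; 1 = growth at the plate median or of vehicle wells; lower values mean less growth of the strain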
# condition details: S. cerevisiae deletion strains, growth OD, locus YLR262C, strain YPT6 (second series), active compounds read low
Hit rate of the full screen: of about 5,500 compounds, about 2,000 (36%) were called active. Not shown: some 18% with an inconclusive outcome. Some of the results follow.
Answers are plain numbers.

Would you please look over these solved cases?
INSERT INTO measurements (compound, recorded_result) VALUES
  ('COc1ccc(OC)c(C(O)C(C)N)c1 (stereo not given)', 0.999),
  ('O=C(O)c1cc2ccccc2[nH]1', 0.991),
  ('COc1cc2c(cc1OC)[C@@H]1C(=O)c3ccc4oc(C(C)C)cc4c3O[C@@H]1CO2', 1.02),
  ('O=C1C=CC(=C(c2ccc(O)cc2)c2ccc(O)cc2)C=C1', 0.972);

# context switch: different compound, same normalized growth
Problem: Which value of normalized growth has been reported for O=C(O)c1cc2ccccc2c(Cc2c(O)c(C(=O)O)cc3ccccc23)c1O in the records?
Result: 1.01

* * *

# assay: chemical genetic growth profiling, strain panel (AID 1159580)
# condition details: S. cerevisiae deletion strains, growth OD, locus YDL101C, strain DUN1, active compounds read low
Among all 5,500 compounds or so, about 2,000 (36%) were called active. Another 18% or so got no clear call; they are omitted. This is one part of the list.
observation type: normalized growth
One number for each entry.

Would you please look over these solved cases?
INSERT INTO results (compound, recorded_result) VALUES
  ('NC(=O)c1ccc[n+]([C@@H]2O[C@H](COP(=O)([O-])OP(=O)(O)OC[C@H]3O[C@@H](n4cnc5c(N)ncnc54)[C@H](O)[C@@H]3O)[C@@H](O)[C@H]2O)c1', 0.987),
  ('CCN(CCO)CCCC(C)Nc1ccnc2cc(Cl)ccc12 (configuration not stated)', 1.02);

Hello, I would appreciate it if you could give normalized growth for each entry below.
1. CC(CCc1ccccc1)NC(C)C(O)c1ccc(O)cc1 (configuration not stated)
2. N#CCOc1ccc(Cl)cc1Cl
3. Cc1cccc(C)c1NC(=O)C(C)Oc1ccc(Cl)cc1Cl (configuration not stated)
4. COC(=O)/C(=C/N(C)C)Sc1cc(C)c(Cl)cc1Cl
5. CN[C@@H](C)[C@@H](O)c1ccccc1

Result:
0.978
0.976
1.01
1.01
1

* * *

# assay: chemical genetic growth profiling, strain panel (AID 1159580)
# condition details: S. cerevisiae deletion strains, growth OD, locus YGR252W, strain gcn5
About 2,000 (36%) of roughly 5,500 compounds were called active. Inconclusive results (about 18%) are left out. No stated cut-off is given here; in the data, active means normalized growth mostly below about 0.91 (no sharp cut-off); inconclusive means no clear call, values can overlap the other calls; inactive means mostly above about 0.92. Some of the results follow.
Pick one and only one: True = active, False = inactive

Solved entries:
INSERT INTO assay_data (compound, cat) VALUES
  ('CC(C)CC(NC(=O)C(Cc1ccccc1)NC(=O)CNC(=O)CNC(=O)C(N)Cc1ccc(O)cc1)C(=O)O (stereo unspecified)', 'False'),
  ('NC(=O)c1ccc[n+]([C@@H]2O[C@H](COP(=O)([O-])OP(=O)(O)OC[C@H]3O[C@@H](n4cnc5c(N)ncnc54)[C@H](O)[C@@H]3O)[C@@H](O)[C@H]2O)c1', 'False');

Problem: Could you kindly confirm the outcome this assay logged for CC1CC2C3CCC4=CC(=O)C=C[C@]4(C)[C@@]3(F)[C@@H](O)C[C@]2(C)[C@@]1(O)C(=O)CO (stereo partly specified) ?
Result: False

Problem: Could you kindly confirm the outcome this assay logged for CCOC(=O)C(C)(C)Oc1ccc(Cl)cc1 ?
Result: False

* * *

# assay: chemical genetic growth profiling, strain panel (AID 1159580)
# condition details: S. cerevisiae deletion strains, growth OD, locus YPL241C, strain CIN2
Screen size: about 5,500 compounds; about 2,000 (36%) were called active. Inconclusive results (about 18%) are left out. Rule as the data show it: active = normalized growth mostly below about 0.91 (no sharp cut-off); inconclusive = no clear call, values can overlap the other calls; inactive = mostly above about 0.92. This is one part of the list.
Pick one and only one: active, inactive

INSERT INTO results (molecule, cat) VALUES
  ('CCOc1ccc(/C=C(\C#N)c2cccc(Cl)c2)cc1', 'inactive'),
  ('CC1=C(OS(=O)(=O)c2cc(C)c(Cl)cc2Cl)C(=O)CC1', 'inactive'),
  ('CCOC(=O)C(=CNc1cccc(C#N)c1)C(=O)OCC', 'inactive'),
  ('COc1ccc(S(=O)(=O)Nc2ccccc2Oc2ccc(Cl)cc2Cl)cc1OC', 'inactive'),
  ('CC(=O)OCC(=O)[C@@]1(O)CCC2C3CCC4=CC(=O)CC[C@]4(C)C3C(=O)C[C@@]21C (stereo partly specified)', 'inactive'),
  ('CO[C@H]1[C@H](O)[C@H](O[C@H]2CC[C@]3(C)C4CC[C@]5(C)C(C6=CC(=O)OC6)CC[C@]5(O)C4CC[C@@H]3C2)O[C@@H](C)[C@@H]1O (stereo partly specified)', 'inactive');

Problem: Could you kindly confirm the outcome this assay logged for N=c1ccn2c(n1)O[C@@H]1C2O[C@H](CO)[C@H]1O (stereo partly specified) ?
Result: inactive

Problem: Could you kindly confirm the outcome this assay logged for CCCCCCCCCCCCCCCC[N+](C)(C)C ?
Result: active

Problem: Could you kindly confirm the outcome this assay logged for CCN(CCO)CCCC(C)Nc1ccnc2cc(Cl)ccc12 (stereo unspecified) ?
Result: inactive

* * *

# assay: chemical genetic growth profiling, strain panel (AID 1159580)
# condition details: S. cerevisiae deletion strains, growth OD, locus YDR137W, strain rgp1
Among all 5,500 compounds or so, about 2,000 (36%) were called active. Another 18% or so got no clear call; they are omitted. Rule as the data show it: active = normalized growth mostly below about 0.91 (no sharp cut-off); inconclusive = no clear call, values can overlap the other calls; inactive = mostly above about 0.92. Some of the results follow.
Pick one and only one: y for active, n for inactive

Solved entries:
INSERT INTO results (compound, cat) VALUES
  ('CC(=O)OCC[N+](C)(C)C', 'y'),
  ('COC1=CC(=O)C[C@@H](C)[C@]12Oc1c(Cl)c(OC)cc(OC)c1C2=O', 'n');

Problem: Could you kindly confirm the outcome this assay logged for COc1ccc2c(c1)OCc1c-2oc2cc(OC)ccc12 ?
Result: y

Problem: Could you kindly confirm the outcome this assay logged for C[N+](C)(C)CCOC(N)=O ?
Result: n

Problem: Could you kindly confirm the outcome this assay logged for O=C(O)C1(O)C[C@@H](O)C(O)[C@H](O)C1 (stereo not given in full) ?
Result: n

* * *

# assay: chemical genetic growth profiling, strain panel (AID 1159580);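 further: tested at 20 µM; growth read once vehicle control cultures reached saturation at 30 °C; 1 = growth at the plate median or of vehicle wells; lower values mean less growth of the strain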
# condition details: S. cerevisiae deletion strains, growth OD, locus YHR079C, strain IRE1, active compounds read low
The campaign covered roughly 5,500 compounds. About 2,000 (36%) were called active. About 18% were inconclusive and are not listed. The list shows a part of the results.
For each entry below, report its normalized growth value.
One number for each entry.

Would you please look over these solved cases?
INSERT INTO assay_data (compound, recorded_result) VALUES
  ('COc1cc(NC(=S)N(C)C)c(OC)cc1Cl', 0.984),
  ('COc1ccc2c(c1OC)C(=O)O[C@@H]2[C@H]1c2cc3c(cc2CCN1C)OCO3', 0.995),
  ('CCN(CCO)CCCC(C)Nc1ccnc2cc(Cl)ccc12 (stereo unspecified)', 0.99);

Hello, I would appreciate it if you could give normalized growth for each entry below.
1. N=c1ccn2c(n1)O[C@@H]1C2O[C@H](CO)[C@H]1O (stereo partly specified)
2. CC1=C(CC(=O)O)c2cc(F)ccc2/C1=C\c1ccc(S(C)=O)cc1 (stereo unspecified)
3. CC(=O)OC(C)(C)[C@@H]1Cc2cc3ccc(=O)oc3cc2O1

Result:
1. 0.985
2. 0.988
3. 0.978

* * *

# assay: chemical genetic growth profiling, strain panel (AID 1159580);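 further: tested at 20 µM; growth read once vehicle control cultures reached saturation at 30 °C; 1 = growth at the plate median or of vehicle wells; lower values mean less growth of the strain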
# condition details: S. cerevisiae deletion strains, growth OD, locus YDR502C, strain sam2
Among all 5,500 compounds or so, about 2,000 (36%) were called active. Roughly 18% stayed inconclusive and do not appear here. No stated cut-off is given here; in the data, active means normalized growth mostly below about 0.91 (no sharp cut-off); inconclusive means no clear call, values can overlap the other calls; inactive means mostly above about 0.92. The list shows a part of the results.
Pick one and only one: class 1 for active, class 0 for inactive

INSERT INTO results (molecule, cat) VALUES
  ('CC(N)C(=O)OC(C)(C)Cc1ccc(Cl)cc1 (configuration not stated)', 'class 0'),
  ('NCCSSCCN', 'class 0'),
  ('CCOC(=O)CCC(=O)O[C@H]1[C@H](O[C@@H]2[C@@H](C)[C@H](O[C@H]3C[C@@](C)(OC)[C@@H](O)[C@H](C)O3)[C@@H](C)C(=O)O[C@H](CC)[C@@](C)(O)[C@H](O)[C@@H](C)C(=O)[C@H](C)C[C@@]2(C)O)O[C@H](C)C[C@@H]1N(C)C', 'class 0'),
  ('CN1CCC(=C2c3ccccc3Sc3ccccc32)CC1', 'class 0'),
  ('O=C(O)c1cc2ccccc2[nH]1', 'class 0');

Then there is this molecule:
Problem: Could you kindly confirm the outcome this assay logged for CC(N)CCCC(C)(C)O (configuration not stated) ?
Result: class 0

* * *

# assay: chemical genetic growth profiling, strain panel (AID 1159580);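 further: tested at 20 µM; growth read once vehicle control cultures reached saturation at 30 °C; 1 = growth at the plate median or of vehicle wells; lower values mean less growth of the strain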
# condition details: S. cerevisiae deletion strains, growth OD, locus YKL085W, strain MDH1
Screen size: about 5,500 compounds; about 2,000 (36%) were called active. Another 18% or so got no clear call; they are omitted. No stated cut-off is given here; in the data, active means normalized growth mostly below about 0.91 (no sharp cut-off); inconclusive means no clear call, values can overlap the other calls; inactive means mostly above about 0.92. The list shows a part of the results.
Pick one and only one: active, inactive

INSERT INTO results (compound, cat) VALUES
  ('COc1ccc2c3c1O[C@H]1C[C@@H](O)C=C[C@@]31CCN(C)C2', 'inactive');

Problem: Could you kindly confirm the outcome this assay logged for C=Cc1c2[nH]c(c1C)C=c1[nH]c(c(C)c1C=C)=CC1N=C(C=c3[nH]c(c(C)c3CCC(=O)O)=C2)C(CCC(=O)O)=C1C (stereo unspecified) ?
Result: active

Problem: Could you kindly confirm the outcome this assay logged for CC1CC2C3CCC4=CC(=O)C=C[C@]4(C)[C@@]3(F)[C@@H](O)C[C@]2(C)[C@@]1(O)C(=O)CO (stereo partly specified) ?
Result: inactive

Problem: Could you kindly confirm the outcome this assay logged for CN1CCCN=C1COC(=O)C(O)(c1ccccc1)C1CCCCC1 (stereo unspecified) ?
Result: inactive

Problem: Could you kindly confirm the outcome this assay logged for O=C(O)c1cc2ccccc2c(Cc2c(O)c(C(=O)O)cc3ccccc23)c1O ?
Result: inactive

Problem: Could you kindly confirm the outcome this assay logged for CN(C)C(=S)SSC(=S)N(C)C ?
Result: active

Problem: Could you kindly confirm the outcome this assay logged for COc1ccc2c(C)cc(=O)oc2c1 ?
Result: inactive

Problem: Could you kindly confirm the outcome this assay logged for COc1ccc2c(c1)OCc1c-2oc2cc(OC)ccc12 ?
Result: inactive

Problem: Could you kindly confirm the outcome this assay logged for CC(C)(OC(=O)c1ccccc1)[C@@H]1Cc2cc3ccc(=O)oc3cc2O1 ?
Result: inactive

Problem: Could you kindly confirm the outcome this assay logged for Cc1cc(O)c(C=O)c(O)c1C(=O)O ?
Result: inactive

Problem: Could you kindly confirm the outcome this assay logged for CC(=O)[C@H]1CCC2C3CCC4=CC(=O)CC[C@]4(C)C3CC[C@@]21C (stereo partly specified) ?
Result: active
